- Tested on: HT-29
- assay_text: Growth inhibition of human HT-29 cells
- Assay type: functional
measurement_kind: GI50 (nM)
Write the answer as a number in nM, unit excluded.

# molecular_string, GI50, nM
records = [
    ("COc1ccc(-c2cn(-c3cccc(C(=O)/C=C/c4ccc(O)c(OC)c4)c3)c(=O)[nH]2)cc1", 3840),
    ("COc1cc(/C=C/C(=O)c2cccc(-n3cc(-c4ccc(Cl)cc4)[nH]c3=O)c2)ccc1O", 2970),
    ("COc1cc(/C=C/C(=O)c2cccc(-n3cc(-c4ccccc4)[nH]c3=O)c2)cc(OC)c1OC", 660),
    ("O=C(/C=C/c1cccc(O)c1)c1cccc(-n2cc(-c3ccc(Cl)cc3)[nH]c2=O)c1", 1900),
    ("COc1cc(/C=C/C(=O)c2cccc(-n3cc(-c4cc(OC)c(OC)c(OC)c4)[nH]c3=O)c2)cc(OC)c1OC", 1700),
]

### Prompt Which GI50 is listed for "COc1ccc(-c2cn(-c3cccc(C(=O)/C=C/c4cc(OC)c(OC)c(OC)c4)c3)c(=O)[nH]2)cc1" ?
### Response 1280

### Prompt What about "COc1cc(/C=C/C(=O)c2cccc(-n3cc(-c4ccc(Cl)cc4)[nH]c3=O)c2)cc(OC)c1OC" ?
### Response 2000

### Prompt What about "COc1cc(/C=C/C(=O)c2cccc(-n3cc(-c4ccccc4)[nH]c3=O)c2)ccc1O" ?
### Response 3770

### Prompt What about "O=C(/C=C/c1cccc(O)c1)c1cccc(-n2cc(-c3ccccc3)[nH]c2=O)c1" ?
### Response 3330
